# experimental_details: physchem
# Type: physicochemical
# particulars: pH 4, aqueous buffer, thermodynamic from solid, Saturated solubility, overall estimate
measured_quantity: solubility at 1 hr

Sample CC(=O)[O][Pt]([NH2])([NH2])([Cl])([Cl])[O]C(=O)NCCCCCN1C(=O)C=CC1=O — what was its solubility at 1 hr?
~9000 µg/mL

----------
# system_under_test: CYP2C19 (Homo sapiens, UniProt P33261)
# Sequence (P33261 whole entry): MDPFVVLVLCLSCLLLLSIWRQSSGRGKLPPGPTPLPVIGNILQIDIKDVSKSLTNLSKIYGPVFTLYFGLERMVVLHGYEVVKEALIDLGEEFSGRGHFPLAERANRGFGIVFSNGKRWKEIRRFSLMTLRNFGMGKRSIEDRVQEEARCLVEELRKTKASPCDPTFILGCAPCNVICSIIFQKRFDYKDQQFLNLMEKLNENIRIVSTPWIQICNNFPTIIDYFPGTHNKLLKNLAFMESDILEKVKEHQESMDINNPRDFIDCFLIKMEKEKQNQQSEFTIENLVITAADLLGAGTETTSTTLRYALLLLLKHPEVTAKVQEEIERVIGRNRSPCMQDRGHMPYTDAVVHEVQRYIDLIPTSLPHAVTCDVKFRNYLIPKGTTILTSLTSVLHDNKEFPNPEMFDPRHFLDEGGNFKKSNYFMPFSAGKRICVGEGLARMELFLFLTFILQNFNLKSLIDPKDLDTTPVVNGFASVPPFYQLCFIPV
measured_quantity: pIC50
FYI, pIC50 means -log10 of a concentration in mol per litre.

Sample CC(=O)[O][Pt]([NH2])([NH2])([Cl])([Cl])[O]C(=O)NCCCCCN1C(=O)C=CC1=O — what was its pIC50?
5.57
